Test system: TNF-α Secretion in Raw Cells (Raw 264.7 cells)
Assay: Cell-based assay for inhibition of TNF-α secretion in Raw cells
Details: Raw 264.7 cells, LPS 100 ng/ml, 4 hours, TNF-α by ELISA; read-out: TNF-α Secretion in Raw Cells IC50
EXPERIMENTAL ENDPOINT: pIC50
// returns pIC50 (minus log10 of molar concentration), number only

CC#CCOc1ccc(S(=O)(=O)N[C@@H](Cc2c[nH]c3ccc(OC)cc23)C(=O)O)cc1    4.24

Lab book: pIC50 of CC#CCOc1ccc(S(=O)(=O)N[C@@H](Cc2c[nH]c3ccc(C)cc23)C(=O)O)cc1 noted as 5.15

* * *

Target: catalytic domain of the recombinant TACE protein (Homo sapiens, UniProt P78536)
Construct: The catalytic domain of the recombinant TACE protein was expressed and purified; made in house
Sequence (P78536 223-474 limits assumed): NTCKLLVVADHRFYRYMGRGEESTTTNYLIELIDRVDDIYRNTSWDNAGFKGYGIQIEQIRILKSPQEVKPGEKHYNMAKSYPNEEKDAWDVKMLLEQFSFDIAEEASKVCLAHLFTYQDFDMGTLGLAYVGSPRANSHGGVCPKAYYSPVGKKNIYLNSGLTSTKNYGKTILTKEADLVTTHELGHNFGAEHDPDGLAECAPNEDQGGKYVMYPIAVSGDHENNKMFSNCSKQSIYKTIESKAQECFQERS
Test: TACE FRET assay using TACE cat
Type: biochemical
EXPERIMENTAL ENDPOINT: pIC50
// returns pIC50 (minus log10 of molar concentration), number only

CC#CCOc1ccc(S(=O)(=O)N[C@@H](Cc2c[nH]c3cc(C)ccc23)C(=O)O)cc1    5.80
CC#CCOc1ccc(S(=O)(=O)N[C@@H](Cc2cn(CC3CCCCC3)c3ccc(OC)cc23)C(=O)O)cc1    5.73
CC#CCOc1ccc(S(=O)(=O)N[C@@H](Cc2c(C)n(Cc3cccc(C#N)c3)c3ccc(OC)cc23)C(=O)O)cc1    6.32

Lab book: pIC50 of CC#CCOc1ccc(S(=O)(=O)N[C@H](Cc2cn(CC3CCCCC3)c3ccccc23)C(=O)O)cc1 noted as 5.77

Lab book: pIC50 of CC#CCOc1ccc(S(=O)(=O)N[C@@H](Cc2c[nH]c3ccc(O)cc23)C(=O)O)cc1 noted as 5.79

* * *

Molecular target: catalytic domain of the recombinant TACE protein (Homo sapiens, UniProt P78536)
Construct: The catalytic domain of the recombinant TACE protein was expressed and purified; made in house
Test: TACE FRET assay using TACE cat
Type: biochemical
Conditions: TACE FRET assay, catalytic domain of recombinant TACE; read-out: TACE IC50
EXPERIMENTAL ENDPOINT: pIC50
// returns pIC50 (minus log10 of molar concentration), number only

CC#CCOc1ccc(S(=O)(=O)N[C@H](Cc2cn(Cc3cc(OC)cc(OC)c3)c3ccccc23)C(=O)O)cc1    6.01
CC#CCOc1ccc(S(=O)(=O)N[C@H](Cc2cn(CCCCOc3ccccc3)c3ccccc23)C(=O)O)cc1    5.90
CC#CCOc1ccc(S(=O)(=O)N[C@H](Cc2cn(Cc3ccc(C(F)(F)F)cc3)c3ccccc23)C(=O)O)cc1    5.36

Okay, now this compound:
Lab book: pIC50 of CC#CCOc1ccc(S(=O)(=O)N[C@H](Cc2cn(Cc3ccc(OC)cc3)c3ccccc23)C(=O)O)cc1 noted as 7.10

* * *

Molecular target: catalytic domain of the recombinant TACE protein (Homo sapiens, UniProt P78536)
Construct: The catalytic domain of the recombinant TACE protein was expressed and purified; made in house
Experiment: TACE FRET assay using TACE cat
Type: biochemical
Procedure: TACE FRET Assay Using TACE Cat “K” is the IC50. Generally, “n” and “B” are floated, noting that n (Hill slope) should be close to 1 and B (background offset) to 0. Pro-TNF-α substrate peptide Abz-[…]-Dpa (AnaSpec, San Jose, Calif., WARC-1) was prepared as a 2 mM stock solution in the TACE assay buffer (50 mM Tris-HCl, pH 7.4, 25 mM NaCl, 4% Glycerol, 0.005% Brij 35). […] The initial rate (slope) of the reaction was determined using a fluorescence plate reader (Molecular Devices, Spectra Max Gemini XS).
EXPERIMENTAL ENDPOINT: IC50 (nM)
Answer in nM, number only, no unit symbol.

CC#CCOc1ccc(S(=O)(=O)NC(Cc2c[nH]c3ccc(C)cc23)C(=O)O)cc1 (racemic) [Example 6]    280
CC#CCOc1ccc(S(=O)(=O)NC(Cc2c[nH]c3ccc(OCc4ccccc4)cc23)C(=O)O)cc1 (racemic) [Example 20]    750
CC#CCOc1ccc(S(=O)(=O)N[C@@H](Cc2c(C)n(Cc3ccc(OC)cc3)c3ccc(Cl)cc23)C(=O)O)cc1 [Example 91]    190
CC#CCOc1ccc(S(=O)(=O)N[C@@H](Cc2cn(CCCCC)c3ccc(OC)cc23)C(=O)O)cc1 [Example 68]    1320
CC#CCOc1ccc(S(=O)(=O)N[C@@H](Cc2c(C)n(Cc3cccc(OC)c3)c3ccc(OC)cc23)C(=O)O)cc1 [Example 190]    260

Lab book: IC50 of CC#CCOc1ccc(S(=O)(=O)N[C@@H](Cc2c(C)n(Cc3ccccc3C)c3ccc(OC)cc23)C(=O)O)cc1 [Example 186] noted as 280

Lab book: IC50 of CC#CCOc1ccc(S(=O)(=O)N[C@@H](Cc2c(C)n(Cc3cccc(F)c3)c3ccc(OC)cc23)C(=O)O)cc1 [Example 198] noted as 340

// provenance: patent US7576222B2
